Value source: a melting point compilation (Tetko et al.; mined from patent text by program, amines drawn as free bases though some values may be those of a salt)

Entries and their melting point values follow.

Examples with their reported melting point follow.
> print(dat)
                                    compound  measured.result
 1  CCCCc1c(CNC(=O)OC(C)(C)C)c(CC(C)C)nc2ccc(OCc3ccccc3)cc12    131 to 132 °C
 2  CCCCCC/C=C\CCCCCCCC(=O)N[C@H]1CCCNC(=O)C1      67 to 68 °C
 3                         O=C1NCCN1c1ccccc1    154 to 156 °C
 4                           NNC(=O)c1ncccn1    173 to 175 °C
 5  O=S1(=O)CCC(NCCNC2CCS(=O)(=O)C2)C1 (centres undefined)      60 to 85 °C
 6      CC(C)(C)OC(=O)CCCCCCCCCC[N+](=O)[O-]      39 to 42 °C
 7  OC(c1ccc(F)cc1)(c1ccc(F)cc1)C1CCNC1 (centres undefined)    152 to 153 °C
 8  OCC(O)Cn1cnc2c(Cl)nc3ccccc3c21 (centres undefined)    223 to 225 °C
 9  CCCNC(=O)Nc1ccccc1Nc1ccc(C(=O)c2ccccc2)cc1    167 to 169 °C
10      CC(=O)S[C@@H](CCN1C(=O)CCC1=O)C(=O)O    110 to 112 °C

Suppose we examine the compound `Cc1noc(-c2ncn3c2cnc2ccccc23)n1` ; what melting point value has been reported? 269 to 270 °C

Now the compound COC(=O)Cc1ccc(OCCNC(=O)C2Cc3ccccc3N2S(=O)(=O)c2ccc(-c3cc(C)ccc3C)cc2)cc1 (centres undefined) 56 to 59 °C

Now the compound `Nc1c(F)c(N2CCNCC2)cc2c1c(=O)c(C(=O)O)cn2C1CC1` 214 to 216 °C

Now the compound `CC(=O)Nc1ncc(Cc2ccc(Cl)cc2)c(N)n1` 215 °C

Now the compound Cc1oc(-c2ccco2)nc1COc1ccc(CCCC2OC(=O)NC2=O)cc1O (centres undefined) 152 to 153 °C

Now the compound `Cc1[nH]c2ccc(F)cc2c1C(=O)Nc1ccc(Oc2ccccc2)c(C#N)c1` 237 °C

Now the compound `CCOc1nccc(Cl)c1NC(=O)OC(C)(C)C` 73 to 74 °C

Now the compound `CN1C[C@H](CCCl)Oc2ncccc2C1=O` 61 to 62 °C

Now the compound `Nc1cc(Cl)ccc1C(=O)c1cccc(O)c1` 137 to 138 °C

Now the compound `N#Cc1ccc2nc(C(=O)NCc3cccc(CNC(=O)c4nc[nH]n4)c3)[nH]c(=O)c2c1` 218 to 219 °C

Now the compound COC(=O)C1=C(C)Nc2c(c(-c3ccccc3)nn2C)C1c1ccc(F)cc1 (centres undefined) 181 to 183 °C

Now the compound CCCCCCS(=O)c1c(O)cc(C)oc1=O (centres undefined) 59 to 60 °C

Now the compound O=C1CCC(N2Cc3cc(CNC(=O)c4ccccc4)ccc3C2=O)C(=O)N1 (centres undefined) 266 to 268 °C

Now the compound `Cc1nn(C)c2c1Nc1ccccc1NC2=O` 189 to 190 °C
